pKi: −log10 of the molar value.
Kindly find below pKi information for Gastrin/cholecystokinin type B receptor (Rattus norvegicus) taken from the literature.
Label 1 for high-side pKi (at or above 6) and 0 for low-side pKi (below it).

Answered examples (8):
C[C@](Cc1c[nH]c2ccccc12)(NC(=O)OC1C2CC3CC(C2)CC1C3)C(=O)N1C[C@H](OCc2ccccc2)C[C@@H]1C(=O)O (stereo partly drawn) ... 1
CC(C)(C)OC(=O)N[C@@H](Cc1c[nH]c2ccccc12)C(=O)N[C@@H]1CCCN2C(=O)N(Cc3ccccc3)C(=O)C[C@@H]12 ... 0
CC(C)(C)OC(=O)N[C@H](Cc1c[nH]c2ccccc12)C(=O)N[C@H]1CCCN2C(=O)N(Cc3ccccc3)C(=O)C[C@H]12 ... 0
Cc1nccn1CC1CCc2c(c3ccccc3n2C)C1=O (stereo not drawn) ... 0
CN(C)[C@@H](Cc1cccc2ccccc12)C(=O)N[C@@H](CC(=O)O)C(=O)N[C@H](C(=O)N[C@@H](Cc1c[nH]c2ccccc12)C(=O)OC(C)(C)C)c1ccccc1 ... 1
C[C@](Cc1c[nH]c2ccccc12)(NC(=O)OC1C2CC3CC(C2)CC1C3)C(=O)N1C[C@H](Oc2ccc(F)cc2F)C[C@@H]1C(=O)O (stereo partly drawn) ... 1
CC(C)(C)OC(=O)N[C@H](Cc1c[nH]c2ccccc12)C(=O)N[C@@H]1CCCN2C(=O)N(Cc3ccccc3)C(=O)C[C@H]12 ... 0
O=C(O)c1cc(NC(=O)[C@H](Cc2ccccc2)NC(=O)c2cc3cc[nH]c3cc2C(=O)NCC23CC4CC(CC(C4)C2)C3)cc(C(=O)O)c1 ... 1

-- ask Exam item: decide whether the reported pKi for CC(C)(C)OC(=O)N[C@H](Cc1c[nH]c2ccccc12)C(=O)N[C@@H]1CCCN2C(=O)N(Cc3ccccc3)C(=O)C[C@@H]12 is at least 6.
-- reply 0

-- ask Is the recorded value of pKi equal to or greater than 6 for this compound? C[C@@](Cc1c[nH]c2ccccc12)(NC(=O)OC1C2CC3CC(C2)CC1C3)C(=O)N1CC[C@H](Oc2ccc(Cl)cc2Cl)C[C@H]1C(=O)O (stereo partly drawn)
-- reply 0

-- ask Dear colleague, could you confirm whether C[C@](Cc1c[nH]c2ccccc12)(NC(=O)OC1C2CC3CC(C2)CC1C3)C(=O)N1CC[C@@H](Oc2ccc(Cl)cc2Cl)C[C@H]1C(=O)O (stereo partly drawn) has pKi at or above 6?
-- reply 1
